System: MS2 coat protein
Test Method Notes: apparent KD of MS2 coat protein; higher = weaker reporter binding
Test Parameters: Eterna round: R107; input ligand: none
Measured Quantity: apparent KD of MS2 coat protein (nM)
# unit: nM | format: bare number

Record excerpt, results attached:
CUAUAAUGAAAACAUUAUAGAGUGGGUGAACGAGGACCGGUACGGCCGCCACUCGGACAUGAGGAUCACCCAUGUCCAUGUGAAA [AstrosExyTryA#24] | 15.6
GGGAGAUGAAUAGAAUGAGAUGACACAGAAGGAGCGUGAAUUAACACAGGUAGGUCGCUGACAACAUGAGGAUCACCCAUGUAUU [Same State Arginine A GF3] | 15.2
AAGACUGGACAUAAGUCCAGUCAACCUGAAGGAGCGGGUGGGUGCCCAGGUAGGUCGCGGGAACAUGAGGAUCACCCAUGUAUAA [ArgAS 5 #BothOrNeither #OpenEnded] | 25.8

Provide the documented apparent KD of MS2 coat protein with MS2 coat protein as the system for `UUCAGCUAGUCGGCCGCCACUACCUGAGGAUCACCCUGGUAAUCCUAACACUGCUUCGGCAGUGGUAGGACCGGGACUAGCUGAG` 28.2

What apparent KD of MS2 coat protein appears in the records for this sequence with MS2 coat protein? UUAAUCAGGUUAGAAAACUAAUUUGCAGAAGGAGCGUGAUAAAACACAGGUAGGUCGCUGAAGGGAACAUGAGGAUCACCCAUGU [AstrosSSArgA#10] 26.3

MS2 coat protein / apparent KD of MS2 coat protein / GCAACAUGAGGAUCACCCAUGUUUACUGAAGGAGCGAGACAGAACUCAGGUAGGUCGCAGACGGCGGAAUCGCCGACGACAUGGG [Exclusion Arginine A GF24] : value? 22.4

Reported apparent KD of MS2 coat protein for MS2 coat protein, given UCGCUCGCCGCAAGGCGAGCGAGUUGCGAUACCAGCCCGGAAACGGGCCCUUGGCAGCGCACAUGAGGAUCACCCAUGUCAUGUU [#1 Exclusion - Theophylline A Attempt #4 (HarryS)] ? 25

API: value(readout=apparent KD of MS2 coat protein, system=MS2 coat protein) for record ACAUGAGGAUCACCCAUGUAUCAACGGGAAGGAGCGCCAAACAAGGCAGGUAGGUCGCCCACAUGAGGAUCACCCAUGUGUUGGU [Exclusion Arginine A GF 29] 21.4

* * *

A collection of sequences and their measured apparent KD of K4 kissing-loop reporter
Test system: K4 kissing-loop RNA reporter;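 further: bound reporter read as fluorescence of individual clusters on recovered sequencing chips by microscopy, with normalized cluster intensities fitted with a binding model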
Test Method Notes: apparent KD of K4 kissing-loop reporter; higher = weaker reporter binding
Test Parameters: Eterna round: R107; input ligand: arginine 13.2 mM
Answer in nM, number only, no unit symbol.

CAACAGCUUACGGCCGCCACUCCUUUAUAUGGUGCGCACCGUUGAGCUCUAGUGAUGUUGGUGCCGAGGACCGGGUAGGAAAGUA [theeternabot_sameState_KL_Trp_B_31] | 245
GCCGUACGCAUGGAUACCAGCUACUAGAGUGAUGUUCUAUGGCCCUGCCAAUGGAGCUGUAGCCCUUGGCAGCCAUGCGUACGGC | 125

// query apparent KD of K4 kissing-loop reporter value for entry UGACAUUGCUCAGAUACCAGACUUGAGGAACACCCAAGUGCCAAACGUACAAUAAUAAAAGUCCCUUGGCAGCUGAGCAAUGUCU [TheoBX 14] 53.6

// data source = the supplement of paper PMC9170038
